Recorded EC50 values for a group of binders are listed next.
tgt: T1, IGF1R on MCF7 breast cancer cells (UniProt P08069 31-1367, limits assumed)
T1 construct: whole, on cells; Endogenous receptor on MCF7 cells; also called MCF7 cells expressing IGF1R
protocol details: flow cytometry on MCF7 cells, PE goat anti-human IgG secondary, median FL2-H, non-linear regression fit, the concentration axis is LogM
Provide the reading as a plain figure in nM.

Please review the entries below; each comes with its answer.
| binder | value |
| --- | --- |
| anti-IGF1R antibody B10 (antibody, V domains shown, Fully human antibody of an IgG class; also called clone B10) VH: QVQLVQSGAEVKKPGASVKVSCKGSGYNFPTQAIHWVRQAPGQRLEWMGWTNTANGNAKYSQKFQGRVTITRDTYASTDYMELSSLTSEDTAIYYCTRDRFTGSGTYGMDVWGQGTTVTVSS VL: SYELMQPSSVSVSPGQTARITCSGDLLTRRYARWFQQKPGQAPLLIIYRDTVRPSGIPERFSASSSGATITLTISGAQLEDEADYYCYSATDNNVVFGGGTKLTVL | 5.83 |
| anti-IGF1R antibody A6 (antibody, V domains shown, also called clone A6) VH: QVQLVQSGAEVMKPGASVKVSCKASGYTFTSYGISWVRQAPGQGLEWMGWISAYNGNTNYAQMLQGRVTMTTDTSTSTAYMELRSLRSDDTAVYYCARRGLSSYYYGMDVWGQGTTVTVSS VL: QPVLTQPPSVSAAPGQKVTISCSGGTSNVANNYVSWYQQLPGTAPKLLIYGNSNRPSGVPDRFSGSKSGTSASLAITGLQAEDEADYYCQSYDTSLSGYVFGSGTKVTVL | 0.705 |
| anti-IGF1R antibody B9 (antibody, V domains shown, Fully human antibody of an IgG class (captured on an anti-hIgG Fc sensor, detected with anti-human IgG); also called clone B9) VH: EVQLLESGGGLVQPGGSLRLSCAASGFTFSSYEMNWVRQAPGKGLEWVSYISTGDSTRSYADSVRGRFTISRDNAKNSLYLQMNSLRAEDTAVYYCARESGTWYGGWYFDLWGRGTLVTVSS VL: QSVVTQPPSVSAAPGQKVTISCAGSTSNIGNNFVSWYQQLPGTAPKLLIYDNNKRPSEIPDRFSGSKSGTSATLGITGLQTGDEADYYCVTWDSSLSVVLFGGGTKVTVL | 0.0374 |

// below: EC50 requested for another binder
Q) Return EC50 (reported value) for this binder: anti-IGF1R antibody C8 (antibody, V domains shown, Fully human antibody of an IgG class; also called clone C8) VH: QVQLVQSGAEVKKPGSSVKVSCKASGGSFNSFSISWVRQAPGQGLEWMGGITPMFGIGDNAQKFQDRVAITADESMSTFYMELSNLRFEDTAMYFCAREVGGLGFDVWGQGTTVTVSS VL: VIWMTQSPSSLSASVGDRVTFTCQASQHISKYLNWYQQKPGKAPKLLIYDASNLETGVPSRFSGSGSATDFTLTISSLQPEDFATYYCQQSYLTSYTFGQGTKVDIK
A) 16.1
